- Test system: OVCAR-4 ovarian
- PROCEDURE DETAILS: NCI-60 one-dose screen, 48 h (100 = growth as untreated, 0 = no growth, -100 = all killed)
- MEASUREMENT PARAMETERS: 10 µM unless noted
- Experimental: Growth inhibition of the OVCAR-4 human tumor cell line is measured as a screen for anti-cancer activity. Cells are grown in 96 well plates and exposed to the test compound for 48 hours. Compounds are tested at a single concentration, which is 10^-5 M for most compounds. The reported endpoint is percent growth (GI% or GIPRCNT), where numbers from 0 - 100% represent growth inhibition, and numbers from -100% - 0 represent cell death. For example, a value of 40 represents 60% growth inhibition. […]
About 83,000 compounds went through this panel and 20% of them were active in at least one assay; those are over-represented in the sample as a whole. Activity calls are given as the source filed them. The calls were made as follows: active = growth percent below 10; inactive = the rest.
ASSAY READOUT: growth

Need growth of Fc1ccc(Cc2ccc(F)cc2)cc1 , thanks.
101% (inactive)

Need growth of Brc1cccc(-c2nc(-c3ccc4c(c3)OCCO4)co2)c1 , thanks.
81% [25 µM] (inactive)

Need growth of COc1ccc(/C=C2\CN(C(=O)CCN3CCC(=NO)CC3)C/C(=C\c3ccc(OC)cc3)C2=O)cc1 , thanks.
28.2% (inactive)

Need growth of O=S(=O)(NCCCNc1cc(-c2cn(-c3ccccc3)nc2-c2ccccc2)ccn1)c1ccc(C(F)(F)F)cc1 , thanks.
58.7% (inactive)

Need growth of CCOC(=O)c1cnc2ccc(OC)cc2c1Nc1cccc(S(=O)(=O)NC)c1 , thanks.
104% (inactive)

Need growth of COc1cc(/C=N/N(C)C)ccc1O , thanks.
115% (inactive)

Need growth of COc1ccc(-c2cn3c(ccc4ccccc43)n2)cc1 , thanks.
101% (inactive)
